Item-by-item account of Human GIPR cAMP, HEK293T EC50
ASSAY SYSTEM: T1, full-length human GIPR with an N-terminal FLAG tag, overexpressed on HEK-293T cells (human, UniProt P48546 22-466)
T1 sequence (looked up): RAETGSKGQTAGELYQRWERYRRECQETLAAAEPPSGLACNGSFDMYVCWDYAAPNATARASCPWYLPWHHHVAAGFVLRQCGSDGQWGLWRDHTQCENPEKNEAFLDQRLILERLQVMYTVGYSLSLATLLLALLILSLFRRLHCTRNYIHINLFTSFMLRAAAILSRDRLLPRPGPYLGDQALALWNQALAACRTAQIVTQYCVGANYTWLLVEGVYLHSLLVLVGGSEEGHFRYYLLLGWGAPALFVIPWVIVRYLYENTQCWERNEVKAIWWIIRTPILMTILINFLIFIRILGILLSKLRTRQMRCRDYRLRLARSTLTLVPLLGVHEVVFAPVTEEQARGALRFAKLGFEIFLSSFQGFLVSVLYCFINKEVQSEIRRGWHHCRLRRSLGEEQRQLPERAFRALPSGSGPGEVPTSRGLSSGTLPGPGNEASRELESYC
ASSAY INFO: cell-based or functional assay
Starred links: 1 amine or outer side, 2 acyl side, 3 side chain; linkers in the order of their positions; H or OH if unused. Non-standard residues stand in square brackets, D forms with d. Groups on a side chain read outwards from the residue. No end group written: not given here. *: point of attachment. C16 diacid = O=C(O)CCCCCCCCCCCCCCC(=O)*; C15 diacid = O=C(O)CCCCCCCCCCCCCC(=O)*; γGlu = O=C(O)[C@H](CCC(=O)[*:2])N[*:1]; AEEA = NCCOCCOCC(=O)O; Aib = CC(C)(N)C(=O)O

{"BINDER": "YGEGTFISDYSIAK([AEEA-AEEA-γGlu-C16 diacid])DRIHQQNFVNWLLAQK [Compound 192]", "Human GIPR cAMP, HEK293T EC50": "148 pM"}
{"BINDER": "YXEGTFISDYSIAXDRXAQXDFVNWLLAQSPSSG (N-terminal Me (Me-Tyr1); Aib at 2, 17, 20; Km = Lys(R) at 14, linker printed GS (read as G5 = GGGGG), lipid C15DA (C15 diacid); C-terminal OH) [Compound 158]", "Human GIPR cAMP, HEK293T EC50": "0.2 pM"}
{"BINDER": "YXEGTFISDYSIAXDSXAQXDFVNWLLAQKG (N-terminal Me (Me-Tyr1); Aib at 2, 17, 20; Km = Lys(R) at 14, linker printed GS (read as G5 = GGGGG), lipid C15DA (C15 diacid); C-terminal OH) [Compound 177]", "Human GIPR cAMP, HEK293T EC50": "0.2 pM"}
{"BINDER": "Me-Y[Aib]EGTFISDYSIALDR[Aib]AQ[Aib]K([2OEG-γGlu-C15 diacid])FVNWLLAQKG-OH [Compound 213]", "Human GIPR cAMP, HEK293T EC50": "0.3 pM"}
{"BINDER": "YXEGTFTSDYSIYLDKQAAXEFVNWLLAGGPSSGAPPPSX (not fully specified; no N-terminal group printed; Aib at 2, 20; Km = Lys(R) at 40, linker not given, lipid C16; C-terminal NH2) [Compound 191]", "Human GIPR cAMP, HEK293T EC50": "4.9 pM"}
{"BINDER": "Me-Y[Aib]EGTFISDYSIAK([Gly-Gly-Gly-Gly-γGlu-C15 diacid])DR[Aib]AQ[Aib]DFVNWLLAQKG-OH [Compound 180]", "Human GIPR cAMP, HEK293T EC50": "0.3 pM"}

All figures here come from patent US20220227830A1.
